Data origin: patent US20230014445A1

Each item that follows carries a reported pIC50.
molecular target: human full length PIK3KA Wild-type (p110α/p85α complex) (Homo sapiens); construct: Recombinant, catalytically active human full length PIK3KA Wild-type and H1047R mutant were purchased; 6xHis (N); purchased EMD Millipore Sigma 14-602M; experiment: PI3K-Alpha Kinase (PIK3CA) biochemical activity, wild-type (ADP-Glo); details: Soy PI lipid substrate, 20 uM ATP
Sequence (P42336 whole entry): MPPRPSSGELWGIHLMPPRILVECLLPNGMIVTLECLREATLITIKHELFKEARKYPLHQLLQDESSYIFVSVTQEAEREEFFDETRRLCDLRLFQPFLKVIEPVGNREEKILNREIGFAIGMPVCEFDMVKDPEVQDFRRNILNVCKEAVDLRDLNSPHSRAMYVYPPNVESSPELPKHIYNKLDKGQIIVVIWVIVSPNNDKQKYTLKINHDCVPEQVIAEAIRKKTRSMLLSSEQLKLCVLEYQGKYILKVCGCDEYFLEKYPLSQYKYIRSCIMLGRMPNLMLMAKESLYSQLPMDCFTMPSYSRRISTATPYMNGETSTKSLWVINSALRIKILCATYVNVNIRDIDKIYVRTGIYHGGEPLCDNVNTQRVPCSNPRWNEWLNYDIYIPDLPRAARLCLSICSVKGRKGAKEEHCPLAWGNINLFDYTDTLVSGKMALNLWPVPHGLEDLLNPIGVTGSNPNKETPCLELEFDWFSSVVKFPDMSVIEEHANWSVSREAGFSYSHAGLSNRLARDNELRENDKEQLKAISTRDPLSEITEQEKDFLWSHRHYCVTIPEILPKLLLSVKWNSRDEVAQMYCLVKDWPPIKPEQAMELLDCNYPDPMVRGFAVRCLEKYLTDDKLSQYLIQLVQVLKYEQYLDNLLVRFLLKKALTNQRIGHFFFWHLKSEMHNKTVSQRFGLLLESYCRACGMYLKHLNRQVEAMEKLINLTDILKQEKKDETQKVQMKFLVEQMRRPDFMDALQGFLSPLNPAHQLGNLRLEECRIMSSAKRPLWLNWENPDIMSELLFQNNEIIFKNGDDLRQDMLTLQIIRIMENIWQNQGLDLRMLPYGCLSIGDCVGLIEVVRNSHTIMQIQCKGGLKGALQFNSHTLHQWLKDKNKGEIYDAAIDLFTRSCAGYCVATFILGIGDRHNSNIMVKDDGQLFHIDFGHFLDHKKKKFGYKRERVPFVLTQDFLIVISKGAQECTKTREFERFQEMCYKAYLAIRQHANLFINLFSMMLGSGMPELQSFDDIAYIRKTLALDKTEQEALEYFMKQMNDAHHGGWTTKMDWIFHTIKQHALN
Sequence (P27986 whole entry partner): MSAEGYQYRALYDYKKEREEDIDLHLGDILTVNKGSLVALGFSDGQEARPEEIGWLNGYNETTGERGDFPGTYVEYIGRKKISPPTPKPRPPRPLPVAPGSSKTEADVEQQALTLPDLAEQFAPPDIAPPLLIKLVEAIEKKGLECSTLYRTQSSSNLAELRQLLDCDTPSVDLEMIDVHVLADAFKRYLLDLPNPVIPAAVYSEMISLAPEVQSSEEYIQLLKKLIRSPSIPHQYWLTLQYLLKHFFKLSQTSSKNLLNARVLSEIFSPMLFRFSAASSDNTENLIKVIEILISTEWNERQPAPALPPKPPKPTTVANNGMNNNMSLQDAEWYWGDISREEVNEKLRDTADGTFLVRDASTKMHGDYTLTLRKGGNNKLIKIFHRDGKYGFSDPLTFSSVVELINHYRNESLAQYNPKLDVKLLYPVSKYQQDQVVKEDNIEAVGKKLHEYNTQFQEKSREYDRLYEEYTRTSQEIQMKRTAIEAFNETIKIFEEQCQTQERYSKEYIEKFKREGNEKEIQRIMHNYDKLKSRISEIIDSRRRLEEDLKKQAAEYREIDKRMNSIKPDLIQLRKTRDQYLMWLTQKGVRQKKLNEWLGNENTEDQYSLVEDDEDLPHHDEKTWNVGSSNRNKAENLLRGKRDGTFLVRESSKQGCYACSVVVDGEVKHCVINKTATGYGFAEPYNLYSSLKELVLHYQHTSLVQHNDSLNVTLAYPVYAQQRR
pIC50: −log10 of the molar value.

Previously resolved entries follow.
[[record]]
compound = "Cc1cc(C(C)Nc2ccccc2C(=O)O)c2oc(-c3cnc(OC(C)C)nc3)cc(=O)c2c1 (single isomer, unassigned; isomer 2) [Example 42]"
study_system = "human full length PIK3KA Wild-type (p110α/p85α complex) (Homo sapiens)"
data_value = "5.00 to 5.30"

[[record]]
compound = "Cc1cc(C(C)Nc2cccc(F)c2C(=O)O)c2oc(-c3ccccn3)cc(=O)c2c1 (single isomer, unassigned; isomer 1) [Example 110]"
study_system = "human full length PIK3KA Wild-type (p110α/p85α complex) (Homo sapiens)"
data_value = "5.30 to 6.00"

[[record]]
compound = "Cc1cc(C(C)Nc2ccccc2C(=O)O)c2oc(-c3cnn(-c4cccnc4)c3)cc(=O)c2c1 (single isomer, unassigned; isomer 2) [Example 50]"
study_system = "human full length PIK3KA Wild-type (p110α/p85α complex) (Homo sapiens)"
data_value = "5.30 to 6.00"

[[record]]
compound = "Cc1cc(C(C)Nc2ccccc2C(=O)O)c2oc(-c3cnn(-c4ccc(S(C)(=O)=O)cc4)c3)cc(=O)c2c1 (single isomer, unassigned) [Example 88]"
study_system = "human full length PIK3KA Wild-type (p110α/p85α complex) (Homo sapiens)"
data_value = "5.30 to 6.00"

[[record]]
compound = "Cc1cc(C(C)Nc2ccccc2C(=O)O)c2oc(-c3cn[nH]c3)cc(=O)c2c1 (single isomer, unassigned) [Example 51]"
study_system = "human full length PIK3KA Wild-type (p110α/p85α complex) (Homo sapiens)"
data_value = "5.30 to 6.00"

[[record]]
compound = "Cc1cc(C(C)Nc2ccccc2C(=O)O)c2oc(-c3cnn(-c4ccc(Cl)cc4)c3)cc(=O)c2c1 (single isomer, unassigned) [Example 106]"
study_system = "human full length PIK3KA Wild-type (p110α/p85α complex) (Homo sapiens)"
data_value = "5.30 to 6.00"


Lab entry: human full length PIK3KA Wild-type (p110α/p85α complex) (Homo sapiens) assay, compound Cc1cc(C(C)Nc2ccc(Br)nc2C(=O)O)c2oc(-c3cccnc3)c(C)c(=O)c2c1 (single isomer, unassigned; isomer 1) [Example 129] , pIC50 = > 6.30

Lab entry: human full length PIK3KA Wild-type (p110α/p85α complex) (Homo sapiens) assay, compound COc1cccc(-c2cc(=O)c3cc(C)cc(C(C)Nc4ccccc4C(=O)O)c3o2)n1 (single isomer, unassigned; isomer 1) [Example 21] , pIC50 = < 5.00

Lab entry: human full length PIK3KA Wild-type (p110α/p85α complex) (Homo sapiens) assay, compound COC(=O)c1ccccc1NC(C)c1cc(C)cc2c(=O)cc(-c3c[nH]c(=O)cn3)oc12 (single isomer, unassigned; isomer 2) [Example 56] , pIC50 = < 5.00

Lab entry: human full length PIK3KA Wild-type (p110α/p85α complex) (Homo sapiens) assay, compound COc1ccc(-n2cc(-c3cc(=O)c4cc(C)cc(C(C)Nc5ccccc5C(=O)O)c4o3)cn2)cc1F (single isomer, unassigned) [Example 92] , pIC50 = 5.00 to 5.30

Lab entry: human full length PIK3KA Wild-type (p110α/p85α complex) (Homo sapiens) assay, compound COc1cccc(-c2cc(=O)c3cc(C)cc(C(C)Nc4ccccc4C(=O)O)c3o2)n1 (single isomer, unassigned; isomer 2) [Example 22] , pIC50 = 5.30 to 6.00

Lab entry: human full length PIK3KA Wild-type (p110α/p85α complex) (Homo sapiens) assay, compound Cc1cc(C(C)Nc2ccccc2C(=O)O)c2oc(-c3cnn(-c4ccc(C#N)nc4)c3)cc(=O)c2c1 (single isomer, unassigned) [Example 82] , pIC50 = 5.30 to 6.00
